- test name: Toxicity liver stage against HepG2, at 10uM
- Format: cell-based
- Design: test concentration 10 uM, cell line HepG2-A16-CD81EGFP
- reported conditions: human, HepG2-A16-CD81EGFP cells; read-out: INHIBITION
Reported values of cytotoxicity at 10 µM for individual entries
Supply the numeric figure in %, leaving out any unit text.

Give the reported value of cytotoxicity at 10 µM for this record: Cc1ccc(-c2cc(CN3CCc4cncnc4C3)on2)cc1 4.96

Identify cytotoxicity at 10 µM associated with the compound Cn1ccc(CS(=O)(=O)Cc2ccccc2)cc1=O 6.02

Input Cc1cccc(CN2CCS(=O)(=O)[C@@H]3CCN(C(=O)C4CC4)CC[C@@H]32)n1 , output reported cytotoxicity at 10 µM. -3.64

For Cn1cccc1C(=O)N1CCC2(CCCN2Cc2ccccc2)CC1 , write its cytotoxicity at 10 µM. 0.929

Specify measured cytotoxicity at 10 µM for CCCN1CCCC2(CCN(Cc3cncn3C3CCCCC3)C2)C1=O (configuration not stated) . 5.89

Return the recorded cytotoxicity at 10 µM value; entry: Cn1cc(C(=O)CC2CCCN2C(=O)c2cncc3ccccc23)cn1 (configuration not stated) 4.11

Kindly indicate its recorded cytotoxicity at 10 µM. Item: COc1ccc(NC(C)=O)cc1OCc1cccnc1 -23.5

Give me measured cytotoxicity at 10 µM, please, for this compound: CS(=O)(=O)N1CCC(c2nccn2Cc2ccccn2)CC1 -14.6
